ASSAY COMMENT: PAMPA permeability assay
Format: in vitro ADME
REPORTED CONDITIONS: read-out: Cell Permeability Log Papp (converted)
OBSERVABLE: Papp (×10⁻⁶ cm/s)

- MOLECULE: "COc1ccc(-c2coc3cc(OCC4CS4)ccc3c2=O)c(OC)c1 (centres unmarked)"
  OBSERVABLE: "Papp"
  UNIT DESCRIPTOR: "×10⁻⁶ cm/s"
  RESULT NUMBER: 32.4
- MOLECULE: "Cc1cc(=O)c2c(O)cc(OCC3CS3)cc2o1 (centres unmarked)"
  OBSERVABLE: "Papp"
  UNIT DESCRIPTOR: "×10⁻⁶ cm/s"
  RESULT NUMBER: 12.6
